# pIC50 per record follows
# System: H1975 (L858R/T790M)
# assay_overview: EGFR cell proliferation assay (CellTiter-Glo), H1975
# Assay type: cell-based
# condition_context: Homo sapiens, NCI-H1975, 3-5 days of compound treatment
pIC50: −log10 of the molar value.
measured_endpoint: pIC50

1) C=CC(=O)Nc1cc(Nc2nccc(-c3cn(C45CC(C4)C5)c4ccccc34)n2)c(OC)cc1N(C)CCNC [Example 8] : ≥ 7.30
2) C=CC(=O)Nc1cc(Nc2nccc(-c3cn(C)c4ccccc34)n2)c(OC)cc1N(C)C12CC(CN(C)C)(C1)C2 [Example 4] : ≤ 6.52
3) C=CC(=O)Nc1cc(Nc2nccc(-c3cn(C)c4ccccc34)n2)c(OC)cc1N(C)C12CC(N(C)C)(C1)C2 [Example 6] : ≤ 6.52
4) C=CC(=O)Nc1cc(Nc2nccc(-c3cn(C45CC(C#N)(C4)C5)c4ccccc34)n2)c(OC)cc1N(C)CCN(C)C [Example 2] : 6.52 to 7.30
